Test system: Caco-2
Method summary: drug sensitivity score (DSS) for viability; higher = more toxic; extreme values may be limits of the assay
Study conditions: 72 h
drug sensitivity score for assorted compounds

{"Compound": "c1ccc(COCCCc2c[nH]cn2)cc1", "drug sensitivity score": 0}
{"Compound": "CCn1c(=O)n(C2=C(CO)CN(CC3CCCCCCC3)CC2)c2ccccc21", "drug sensitivity score": 0.3}
{"Compound": "COC(=O)C1=C(C)NC(C)=C(C(=O)OCCSc2ccccc2)[C@@H]1C", "drug sensitivity score": 0.8}
{"Compound": "O=C(O)CSCC(=O)NC1CCSC1=O (stereo not given)", "drug sensitivity score": 0}
{"Compound": "CC(=O)c1ccc(NS(C)(=O)=O)c(Oc2ccc(F)cc2F)c1", "drug sensitivity score": 0}

====

The entries below are paired with their reported cell viability.
Test system: U2OS
Method summary: cell viability relative to DMSO; higher = less toxic
Study conditions: 72 h; 10 nM

{"Compound": "CCOC(=O)[N-]c1c[n+](N2CCOCC2)no1 [molsidomine]", "Subject of test": "U2OS", "cell viability": "97.6%"}
{"Compound": "CC1(C)S[C@@H]2[C@H](NC(=O)[C@H](NC(=O)N3CCNC3=O)c3ccccc3)C(=O)N2[C@H]1C(=O)O [azlocillin]", "Subject of test": "U2OS", "cell viability": "100%"}
{"Compound": "CC(C)Oc1ccc(-c2cnc3c(-c4ccnc5ccccc45)cnn3c2)cc1 [DMH1]", "Subject of test": "U2OS", "cell viability": "100%"}
{"Compound": "CC/C(=C(\\c1ccccc1)c1ccc(OCCN(C)C)cc1)c1ccccc1 [tamoxifen]", "Subject of test": "U2OS", "cell viability": "102%"}
{"Compound": "N=C(N)S/C=C\\C(=O)O [ZAPA]", "Subject of test": "U2OS", "cell viability": "97.7%"}
{"Compound": "O=[N+]([O-])/C=C/c1ccc2c(c1)OCO2 [3,4-methylenedioxy-beta-nitrostyrene]", "Subject of test": "U2OS", "cell viability": "97.5%"}
{"Compound": "Cn1c(Nc2ccc(C(F)(F)F)cc2)nc2cc(Oc3ccnc(-c4ncc(C(F)(F)F)[nH]4)c3)ccc21 [RAF265]", "Subject of test": "U2OS", "cell viability": "102%"}
{"Compound": "Nc1ncn([C@H]2C[C@H](O)[C@@H](CO)O2)c(=O)n1 [decitabine]", "Subject of test": "U2OS", "cell viability": "102%"}
{"Compound": "COc1cc2nc(N3CCC(N4CCCCC4)CC3)nc(NC3CCCCCC3)c2cc1OC [C-021]", "Subject of test": "U2OS", "cell viability": "98.7%"}

====

Tested on: Calu-3
Method summary: cell viability relative to DMSO; higher = less toxic
Study conditions: 72 h; 1000 nM
Let's look at some molecules and their measured cell viability.

{"Molecule": "C[C@H](CSC(=O)c1ccccc1)C(=O)N1C[C@@H](Sc2ccccc2)C[C@H]1C(=O)O", "cell viability [%]": 96}
{"Molecule": "Cc1ccccc1C(=O)Nc1ccc(C(=O)N2CCCC(N(C)C)c3ccccc32)cc1 (centres undefined)", "cell viability [%]": 105}
{"Molecule": "CC(C)(C)NCC(O)c1cc(Cl)c(N)c(Cl)c1 (centres undefined)", "cell viability [%]": 93.7}
{"Molecule": "N#C/C(=C\\c1ccc(O)c(O)c1)C(=O)Nc1ccccc1", "cell viability [%]": 101}
{"Molecule": "CSCC[C@H](NC(=O)[C@H](Cc1ccccc1)NC(=O)CNC(=O)CNC(=O)[C@@H](N)Cc1ccc(O)cc1)C(=O)O", "cell viability [%]": 94.3}
{"Molecule": "Cc1csc(-c2nnc(Nc3ccc(Oc4ncccc4-c4ccnc(N)n4)cc3)c3ccccc23)c1", "cell viability [%]": 77.8}
{"Molecule": "CC(=O)O[C@@H]1CC[C@@]2(C)[C@@H](CC[C@]3(C)[C@@H]2C(=O)C=C2[C@@H]4[C@@H](C)[C@H](C)CC[C@]4(C)CC[C@]23C)[C@@]1(C)C(=O)O", "cell viability [%]": 101}
{"Molecule": "Cc1sc(N)c(C(=O)c2cccc(C(F)(F)F)c2)c1C", "cell viability [%]": 100}
{"Molecule": "Nc1nc(OCc2cc(Br)cs2)c2[nH]cnc2n1", "cell viability [%]": 102}

====

Tested on: Caco-2
Method summary: cell viability relative to DMSO; higher = less toxic
Study conditions: 72 h; 100 nM

{"Compound": "Fc1ccc(CN2CCC(Nc3ccc(C(F)(F)F)nn3)CC2)cc1F", "cell viability (%)": 101}
{"Compound": "O=C(NC1CCNCC1)c1n[nH]cc1NC(=O)c1c(Cl)cccc1Cl", "cell viability (%)": 94.2}
{"Compound": "CCOC(=O)c1ccccc1OC(=O)CCCCCCCC(=O)Oc1ccccc1C(=O)OCC", "cell viability (%)": 92.1}
{"Compound": "COc1cc2nc(N3CCC(N4CCCCC4)CC3)nc(NC3CCCCCC3)c2cc1OC", "cell viability (%)": 108}
{"Compound": "Cn1c(=O)c2c(ncn2CCOC(=O)C(C)(C)Oc2ccc(Cl)cc2)n(C)c1=O [etofylline-clofibrate]", "cell viability (%)": 89.4}
{"Compound": "Cn1c(NC[C@@H](N)Cc2ccccc2)nc(-c2ccncc2)c(-c2ccc3ccccc3c2)c1=O", "cell viability (%)": 102}
{"Compound": "CCc1cnn2c(NCc3ccc[n+]([O-])c3)cc(N3CCCC[C@H]3CCO)nc12", "cell viability (%)": 19.9}
{"Compound": "CC(C)(C)NCC(O)c1cc(Cl)c(N)c(Cl)c1 (stereo not given)", "cell viability (%)": 103}
{"Compound": "Nc1nc(=O)c2sc(=O)n([C@@H]3O[C@H](CO)[C@@H](O)[C@H]3O)c2[nH]1", "cell viability (%)": 92.7}
{"Compound": "Cc1ccc2c(c1)=C(c1ccccc1)C(C1=NN(C(=O)CCC(=O)O)C(c3ccc(Br)cc3)C1)C(=O)N=2 (stereo not given)", "cell viability (%)": 97.2}
{"Compound": "COc1cc(N)c(Cl)cc1C(=O)CCC1CCN(CCNS(C)(=O)=O)CC1", "cell viability (%)": 95.5}
{"Compound": "N#Cc1ccc(N2N=C3c4ccc(C(=O)O)cc4CC[C@@H]3[C@@H]2C2CCCC2)cc1Cl", "cell viability (%)": 105}
{"Compound": "CNC1CC(c2ccc(Cl)c(Cl)c2)c2ccccc21 (stereo not given)", "cell viability (%)": 95}
{"Compound": "C[C@H](N)[C@H](O)c1ccc(O)c(O)c1", "cell viability (%)": 96.8}
{"Compound": "COc1cc(C(=O)N2CCOCC2)cc(OC)c1OC", "cell viability (%)": 86.4}

====

Tested on: U2OS
Method summary: cell viability relative to DMSO; higher = less toxic
Study conditions: 72 h; 10 nM
Items are presented alongside their recorded cell viability.

{"Molecule": "Cc1nc2ccccc2c(-c2ccc3c4c(ccnc24)CCO3)c1[C@H](OC(C)(C)C)C(=O)O", "cell viability": "97.2%"}
{"Molecule": "O=C(N/N=C/c1ccccc1O)c1ccccc1O [SCS]", "cell viability": "104%"}
{"Molecule": "COC(=O)[C@H](Cc1ccc([N+](=O)[O-])cc1)NC(=O)c1cccc2ccccc12", "cell viability": "99%"}
{"Molecule": "N=C(N)NN=C1C=CC(=NNC(N)=S)C=C1 [ambazone]", "cell viability": "94.8%"}
{"Molecule": "C#CC[C@H](c1nc2cc(Cl)ccc2c(=O)n1Nc1ccccc1)N(CCCN)C(=O)c1cccc(Cl)c1F [ARQ-621]", "cell viability": "98.9%"}
{"Molecule": "COc1ccc(/C=C\\c2cc(OC)c(OC)c(OC)c2)cc1OP(=O)(O)O [fosbretabulin]", "cell viability": "105%"}
{"Molecule": "COc1ccc(NS(=O)(=O)c2ccc(/N=N/c3ccc(O)c(C(=O)O)c3)cc2)nn1 [salazodine]", "cell viability": "98%"}
{"Molecule": "COc1ccccc1N1CCN(CCCCN2C(=O)CCC2=O)CC1 [MM77]", "cell viability": "101%"}
{"Molecule": "CC[C@@H](C)Nc1cc(C(=O)N[C@H]2C[C@H]3CC[C@@H](C2)N3c2ccc(C(=O)C3CC3)cn2)c(C)cc1C(N)=O [XL888]", "cell viability": "104%"}
{"Molecule": "CNC(=O)c1ccc2cc([C@@]3(O)CCn4cncc43)ccc2c1 [orteronel]", "cell viability": "99%"}
{"Molecule": "O=C(O)CSCC(=O)NC1CCSC1=O (stereo not drawn) [erdosteine]", "cell viability": "105%"}
{"Molecule": "C=CCN1CCCC1CNC(=O)c1cc2nn[nH]c2cc1OC (stereo not drawn) [alizapride]", "cell viability": "99.9%"}
{"Molecule": "CNC(=O)c1cc(Oc2ccc(NC(=O)Nc3ccc(Cl)c(C(F)(F)F)c3)cc2)ccn1 [sorafenib]", "cell viability": "99.1%"}
{"Molecule": "Cc1ccc(-c2ccc(C)cn2)nc1 [abametapir]", "cell viability": "96.3%"}
{"Molecule": "CC1(CN2CCC(n3c(=O)[nH]c4ccccc43)CC2)OCc2ccccc2-n2cccc21 (stereo not drawn) [zaldaride]", "cell viability": "94.6%"}
{"Molecule": "COCCOc1cnc2ccn([C@H](C)c3nnc4c(F)cc(-c5cnn(C)c5)cn34)c(=O)c2c1 [AMG-337]", "cell viability": "99.1%"}
{"Molecule": "O=C(O)[C@H]1CC[C@H](c2cc3cccnc3c(-c3cccc(F)c3)n2)CC1", "cell viability": "98.4%"}
{"Molecule": "CC(C)(N)c1nc(-c2ccc(OC(F)(F)F)cc2)c[nH]1", "cell viability": "94.1%"}
{"Molecule": "Cc1ccc2c(c1)=C(c1ccccc1)C(C1=NN(C(=O)CCC(=O)O)C(c3ccc(Br)cc3)C1)C(=O)N=2 (stereo not drawn) [DQP-1105]", "cell viability": "110%"}
{"Molecule": "C#C[C@]1(O)CC[C@H]2[C@@H]3CCc4cc(OC5CCCC5)ccc4[C@H]3CC[C@@]21C [quinestrol]", "cell viability": "98.9%"}
{"Molecule": "COc1cc(C(=O)N2CCOCC2)cc(OC)c1OC [trimetozine]", "cell viability": "98.3%"}
{"Molecule": "Cc1cc(Nc2ncc(Cl)c(Nc3ccccc3S(=O)(=O)C(C)C)n2)c(OC(C)C)cc1C1CCNCC1 [ceritinib]", "cell viability": "92.8%"}
{"Molecule": "CC(C)n1cnc2c(NCCc3ccc(O)cc3)nc(-c3csc4ccccc34)nc21 [stemregenin-1]", "cell viability": "101%"}
